tested on: wheat germ agglutinin (Triticum aestivum), Alexa647-labelled; assay: wheat germ agglutinin binders on compound microarrays, profiling panel, artefact control for SMM control-protein annotation, biochemical, small-molecule microarray, 635/667 nm fluorescence (AID 1140); conditions: WGA-A647 binding, 635 nm fluorescence, higher = more signal;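 also: score merges 667 nm feature emission with signal to noise over triplicate slides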
Outcome: MET for composite z-score of at least 0.3; NOT MET for anything lower.

Determine whether this molecule has composite z-score no lower than 0.3: CC(c1ccccc1)C(O)C1C=CC2C(=O)N(c3ccccc3)C(=O)C2N1Nc1ccc(C#N)cc1 (stereo not drawn)
MET

Determine whether this molecule has composite z-score no lower than 0.3: COCC(=C=CC[C@@H](O)c1ccc(OCCO)cc1)C[C@@H](O)COCc1ccccc1
MET

Determine whether this molecule has composite z-score no lower than 0.3: CC1CC/C=C\[C@H]2OC34C=CCN(c5ccc(Cl)cc5)C(=O)[C@H]3N(CCCO)C(=O)[C@]4(C)C2C(=O)O1 (stereo partly drawn)
NOT MET

Determine whether this molecule has composite z-score no lower than 0.3: CCOC(=O)C1=CC[C@@H](c2ccccc2Cl)N(S(=O)(=O)c2ccc(C)cc2)[C@H]1c1cccc(OC)c1
MET

Determine whether this molecule has composite z-score no lower than 0.3: COc1ccc([Si](C)(C)[C@H]2[C@H](CCn3cc([C@H](O)c4ccccc4)nn3)O[C@@]3(C(=O)N(C)c4c(Br)cc(C)cc43)[C@@H]2C)cc1
MET

Determine whether this molecule has composite z-score no lower than 0.3: CC(C)C[C@@H]1NC(=O)[C@H]2C[C@@H](C(=O)NCCCCCCNC(=O)CS)[C@@H](c3ccc(O)cc3)N2C1=O
NOT MET

Determine whether this molecule has composite z-score no lower than 0.3: CCOC(=O)C1=CC[C@@H](c2ccccc2)N(S(=O)(=O)c2ccc(C)cc2)[C@H]1C#N
MET

Determine whether this molecule has composite z-score no lower than 0.3: CN1C(=O)[C@]2(CCS(=O)(=O)c3ccccc3)N=C(c3ccc(OCCCO)cc3)O[C@@H]2c2ccccc21
MET

---

tested on: Chordin-like protein 2 (CHRDL2); assay: CHRDL2 small-molecule binders, primary screen, biochemical, small-molecule microarray, 635 nm fluorescence (AID 1126); conditions: small-molecule microarray binding, fluorescence 635 nm; higher = more signal;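 also: printed compound slides probed with Chrdl2 protein at 4 µg/mL for 1 h at 4 C; score merges 667 nm emission intensity with signal to noise over three replicate slides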
measured-metric: composite z-score
Quick one: just the number, no unit, thanks!

Can you share its composite z-score? I mean this compound: [N-]=[N+]=Nc1ccccc1[C@@H]1OC(c2ccc(OCCCO)cc2)=N[C@]1(Cc1ccccc1)C(N)=O
-0.178

Can you share its composite z-score? I mean this compound: COC(=O)[C@@]1(Cc2ccc(F)cc2)[C@H]2c3cc(C(=O)N4CCCC4)n(CCO)c3C[C@H]2CN1C(=O)c1ccccc1
-1.04

Can you share its composite z-score? I mean this compound: COCCCNC(=O)[C@@H]1c2ccccc2C(=O)N(C2CCCCC2)[C@H]1c1ccc(CO)cc1
-1.23

Can you share its composite z-score? I mean this compound: CCOC(=O)C[C@H]1[C@H](OC(=O)c2ccc(-c3ccccc3)cc2)[C@@H](NC(=O)CC(C)C)c2cc(OCCCO)ccc2N1C(=O)Cc1ccc(OC)cc1
-0.213

---

experiment: small-molecule microarray binders of probe aXIP, primary screen, biochemical, NeuroSMM set, 635/667 nm fluorescence (AID 1119); conditions: higher = more signal, called active from +8 up or from −8 down;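 also: probe is the protein aXip251-270 applied at 1 µg/mL to compound-printed slides; binding of probe to printed compounds measured as 667 nm fluorescence plus signal to noise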
Outcome: fulfilled for composite Z-score of at least 0.1; not fulfilled for anything lower.

Determine whether this molecule has composite Z-score no lower than 0.1: CN(C)CCCC[C@@H]1NC(=O)[C@@H]2C[C@H](C(=O)NCc3ccc(F)cc3)[C@H](c3ccc(O)cc3)N2C1=O
not fulfilled

Determine whether this molecule has composite Z-score no lower than 0.1: COC(=O)C1(CC(C)C)C=C2C(=C(C(C)C)C(=O)C2C)CN1 (stereo not given)
fulfilled

Determine whether this molecule has composite Z-score no lower than 0.1: COCCOC(=O)N1C(=O)[C@@]2(c3cc(C#CC4(O)CCCCCC4)ccc31)[C@H](c1ccc(OCCO)cc1)N1[C@H](c3ccccc3)[C@H](c3ccccc3)OC(=O)[C@H]1[C@@H]2C(N)=O
fulfilled

Determine whether this molecule has composite Z-score no lower than 0.1: CCOC(=O)C[C@H]1[C@H](OC(=O)c2cc3ccccc3oc2=O)[C@@H](NC(=O)C2CCCCC2)c2cc(OCCCO)ccc2N1C(=O)Cc1ccc(OC)cc1
fulfilled

Determine whether this molecule has composite Z-score no lower than 0.1: COCCOC(=O)N1C(=O)[C@@]2(c3cc(C#CC4=CCCCC4)ccc31)[C@H](C(=O)N1CCc3cc(OC)c(OC)cc3C1)[C@H]1C(=O)O[C@H](c3ccccc3)[C@H](c3ccccc3)N1[C@@H]2c1ccc(O)cc1
fulfilled

Determine whether this molecule has composite Z-score no lower than 0.1: COC(=O)Cn1c(C(=O)N(C)C)cc2c1C[C@H]1CN(C(=O)c3ccccc3)[C@@](Cc3ccc(OC)cc3)(C(=O)OC)[C@@H]21
not fulfilled

Determine whether this molecule has composite Z-score no lower than 0.1: Cc1c(NC(=O)/C(C#N)=C/c2ccc(Cl)cc2)c(=O)n(-c2ccccc2)n1C
fulfilled

Determine whether this molecule has composite Z-score no lower than 0.1: O=c1cccc(-c2ccccc2C(F)(F)F)o1
fulfilled

Determine whether this molecule has composite Z-score no lower than 0.1: Cc1ccc(S[C@]2(C(=O)NCCN3CCOCC3)CC(=O)N(C3CCCCC3)[C@@H]2c2ccc(CO)cc2I)cc1
fulfilled

Determine whether this molecule has composite Z-score no lower than 0.1: O=C1C2C=CC(C(O)c3cccc(O)c3)N(Nc3ccccc3F)C2C(=O)N1c1ccccc1 (stereo not given)
not fulfilled

Determine whether this molecule has composite Z-score no lower than 0.1: COCCOC(=O)N1C(=O)[C@@]2(c3cc(C#CCCO)ccc31)[C@H](c1ccc(O)cc1)N1[C@H](c3ccccc3)[C@H](c3ccccc3)OC(=O)[C@H]1[C@@H]2C(=O)N1CCc2cc(OC)c(OC)cc2C1
fulfilled

Determine whether this molecule has composite Z-score no lower than 0.1: COCCCNC(=O)[C@@H]1c2ccccc2C(=O)N(C2CCCCC2)[C@H]1c1ccc(CO)cc1
not fulfilled

Determine whether this molecule has composite Z-score no lower than 0.1: CN1C(=O)C2C(C1=O)C1C=C(c3ccc(CO)cc3)C2C(c2cccs2)N1C (stereo not given)
fulfilled

Determine whether this molecule has composite Z-score no lower than 0.1: Cc1ccc(F)cc1S(=O)(=O)N[C@@H]1CCN(Cc2ccc3[nH]ccc3c2)C1
fulfilled

Determine whether this molecule has composite Z-score no lower than 0.1: C=C(COC)/C(=C/C[C@H](OC(=O)c1ccncc1)c1cccc(OCCO)c1)c1cnc2ccccc2c1
fulfilled
